Test: soluble on expression in E. coli; label from the status in PepcDB or PDB records
Property: soluble on expression in E. coli

Sequence Entry: GSPALDTGTTEEDRLKIDVIDWLVFDPAQRAEALKQGNAIMRKFLASKKHEAAKEVFVKIPQDSIAEIYNQCEEQGMESPLPAEDDNAIREHLCIRAYLEAHETFNEWFKHMNSVPGGSGGSWKGHLDALTADVKEKMYNVLLFVDGGWMVDVREDAKEDHERTHQMVLLRKLCLPMLCFLLHTILHSTGQYQECLQLADMVSSERHKLYLVFSKEELRKLLQKLRESSLMLLDQGLDPLGYEIQL
soluble on expression in E. coli: soluble

Sequence Entry: MGFMIEHWDFSTPMATQETTTAEHIQPNHWYHCERLHPDIRSWLEDNHVPRATVDHLLADESRPSFHPLDDDNFMLILRGINMNENASPEDMLSIRILYFQGALISTRKIPSRAIMEIRQALAEHKGPKSLASLLNQIIEGLNGKIDLYLDTIEETLNEFDVNDESTYNHIAAQKALISIKRFIRPQQYAIRDLIESESELVTSRPHQYRFAHNNITRINETIEFYLGEVALFQDEIKHNRDEKTNKNS
soluble on expression in E. coli: soluble

Sequence Entry: MPYEMKFKGVYVLAMEDNSSFKGKIEVGDTVTGVDGKSFKSSEELMNYIKAQKVNQKVTVQFIQDGKAKEATGKLIELPTDKKAGIGIGLTDHTLEHHHHHH
soluble on expression in E. coli: soluble

Sequence Entry: MEPVTSSEREAELERELDLLRKELNIEQKMNSELKRLMIATLSDELQGQVEALTEDKVRLAHRVDEYMGKLMVEDEESDRLRIDRDVWKCKFLAQSIRCDELTSKNEYLLKTLVGIQQAVKTKNVTSDEISDFTQLDLQPLFHRSPCEERVRPITAKYTNLTIACCKNCMGRDIQLL
soluble on expression in E. coli: not soluble

Sequence Entry: VSKDRLYFRQLLSGRDFAVGDMFATQMRNFAYLIGDRTTGDCVVVDPAYAAGDLLDALESDDMQLSGVLVTHHHPDHVGGSMMGFQLPGLAELLERASVPVHVNTHEALWVSRVTGIPVGDLITHEHGDKVSVGDIDIELLHTPGHTPGSQCFLLDGRLVAGDTLFLEGCGRTDFPGGDSDEMYRSLRQLAELPGDPTVFPGHWYSAEPSASLSEVKRSNYVYRPASLDQWRMLMGG
soluble on expression in E. coli: not soluble

Sequence Entry: MKNGEQNGPTTCTNCFTQTTPVWRRNPEGQPLCNACGLFLKLHGVVRPLSLKTDVIKKRNRNSANS
soluble on expression in E. coli: soluble

Please find the next sequence below.
# input For the sequence `MQSPPHDPASALAIRNHYRQSQSRAARLRLLVDTGQELIQLPPEAMRKCVLQRACAFVAMDHGLLLEWGADNGVQTTARHGSKERLSTLETTADPLAIGPQWLERPGTHLPCVLLLPLRGADEGSFGTLVLANSVAISAPDGEDIESLQLLATLLAAHLENNRLLEALVARDRT` , give its reported soluble on expression in E. coli.
# output not soluble

----------
Test: soluble on expression in E. coli; label from the status in PepcDB or PDB records

Sequence Entry: MKIVIIGGFLGGGKTTVLNHLLAESLKESLKPAVIMNEFGKMSVDGALVSEDIPLSELTEGCICCAMKADVSEQLHQLYLKEQPDIVFIECSGIAEPVSVLDACLTPILAPFTTITHMIGVIDASMYKHIKSFPKDIQGLFYEQLAYCSVLFVNKIDSADVETTSKLLKDLEVINPEADIQVGMHGSVTLPISVRQMTATSDNKHESLHKTINHQFVQSPVTCTKAEFIKRLACLPSHIYRLKGFMTFEDTTHTYLIQFTQGQYELTPVAFSKKVPEYLVLIGKGISKEDYQCLEQLEHHHHHH
soluble on expression in E. coli: not soluble
--
Sequence Entry: MGSDKIHHHHHHMKKRFIYHDEKSNKFWWIDYEGDSLAVNYGKVGSIGKFQTKEFDNEEQCLKEASKLIAAKMKKGYQEDPKFNFMDRYYFDDEEIGLHVKTSHPNFQCHFTDPLYMCCWDEESPFGSDEGADALNVLENSLRKEPDLDCADFPQMLIETMWGMKYIAMDSILEEDVRAQLLVDEMSTIQSNMITYATAFGQIKVMGKISHKLKKMGLNALARHQLTAKILQWGDGQDSPILQKMIDDLTAFPHEN
soluble on expression in E. coli: not soluble
--
Sequence Entry: DSDCHFAEQRDFSSQWFRVDDGGEIPDEQELHWHLEYLQQNPNAARDLLHALLPDKDASQGDWRCSYRLLQSADLMPLVFDYRWLMNGQFAFYLVDSASQENGGVATTLLVRALFDDYLRNLKSFSADLKDMVNIMEKGIECSDCAGAVK
soluble on expression in E. coli: not soluble

----------
Test: soluble on expression in E. coli; label from the status in PepcDB or PDB records
Property: soluble on expression in E. coli

Sequence Entry: MLELFLKEEWTTEAKEILRPFGQKKLIGIQMGASNRSRQWFVERWIELAKRIIERDEEVVIVFVGSKNELEEISLVAQALPQDRVFISAGRLSLGAAAALIGELGLLFTPDTGPLHIAVALRVKTISLFAVANPKNSLPDYDQSLHRYIKVDRCCEPCVGKRCAYQKCMEAIGVDEVYEEYKKLQELEHHHHHH
Measured: soluble
--
Sequence Entry: MPRPRVLLLGDPARHLDDLWSDFQQKFEVIPANLTTHDGFKQALREKRYGDFEAIIKLAVENGTESYPWNADLISHLPSSLKVFAAAGAGFDWLDLDALNERGVAFANSRGAGDTATSDLALYLILSVFRLASYSERAARTGDPETFNRVHLEIGKSAHNPRGHVLGAVGLGAIQKEIARKAVHGLGMKLVYYDVAPADAETEKALGAERVDSLEELARRSDCVSVSVPYMKLTHHLIDEAFFAAMKPGSRIVNTARGPVISQDALIAALKSGKLLSAGLDVHEFEPQVSKELIEMKHVTLTTHIGGVAIETFHEFERLTMTNIDRFLLQGKPLLTPAGKVFAPSSAA
Measured: soluble
--
Sequence Entry: VGFAPELYCGLENCYDVLEVNREEFDKQKLAKAYRALARKHHPDRVKNKEEKLLAEERFRVIATAYETLKDDEAKTNYDYYLDHPDQRFYNYYQYYRLRAAPKVDL
Measured: soluble

----------
Experiment: soluble on expression in E. coli; label from the status in PepcDB or PDB records
Property: soluble on expression in E. coli

Sequence Entry: MGSDKIHHHHHHMSSKPIAPLHGRTIIMTRAQEQQSEARSQLHALGSNVLDLPALVIGPPDDWQPLDDALADIKTFHWLVFSSANGVRAVEERLQRIGQSLANRPKGLKLAAVGRKTAQYLEHLGAAVDFVPPNFVADSLINHFPVSGFGLKMLLPRVQSGGRTILGEAFRESGAHVIEVAAYESRCPEAIPDDTATALANSNVDAIAFSSGKTAAHTASLLSHRFGSDWLQQLETVKVISIGPQTSLSCEQHFGRVDQEADPHNLEGLISACVKACRSEAETCPPGSR
Measured: not soluble
//
Sequence Entry: MSLLSGSFLEENMKHLDTYIAFDLEFNTVNDVSHVIQGSAVKYDHHKEVDSFDTYVYTDVPLQSFINGLTGITSNKIAAAPKVEEVMAAFKNFVGELPLIGYNAQKSDLPILAENGLDLRDQYQIDLFDEAYDRRSADLNGIANLRLQTVATFLGIKGRGHNSLEDARMTAAIYESFLETDTNKAYLSQQEEVITDNPFVALGGFFDEGHHHHHH
Measured: not soluble

----------
Experiment: soluble on expression in E. coli; label from the status in PepcDB or PDB records
Property: soluble on expression in E. coli

Sample records with soluble on expression in E. coli:
Sequence Entry: MGHHHHHHSHMAFPGQSDTKMQWPEVPALPLLSSLCMAMVRKSSALGKEVGRRVKEMVMLVAPFRQSSSLSRTFSSRKVVKAHASLHGARLSPLSRNIRG
Property: soluble on expression in E. coli
Measured: not soluble

Sequence Entry: MHHHHHHSSGRENLYFQGSTKGDINQYYTLENTIGRGSWGEVKIAVQKGTRIRRAAKKIPKYFVEDVDRFKQEIEIMKSLDHPNIIRLYETFEDNTDIYLVMELCTGGELFERVVHKRVFRESDAARIMKDVLSAVAYCHKLNVAHRDLKPENFLFLTDSPDSPLKLIDFGLAARFKPGKMMRTKVGTPYYVSPQVLEGLYGPECDEWSAGVMMYVLLCGYPPFSAPTDSEVMLKIREGTFTFPEKDWLNVSPQAESLIRRLLTKSPKQRITSLQALEHEWFEKQLSSSPRNLL
Property: soluble on expression in E. coli
Measured: soluble

Sequence Entry: MGSDKIHHHHHHMTIDDLKSFMLVCRLHSFSTAAVELSMTQSALSKRLQAIQQEVGSEFISTENRRQILITESGKVFYRYAQRIVSSYDELEQELKAYRELKKGNLQIGRVPVMSQYGLTKIINIFERSYPQIDIHLNELEGNDLLMVLKAGEIDAGIIRDIQTKTIDNNHFNSYTLDRDELKVVLPANDSLNNKKRISIEELANYQVISLESGSGIYEKMVEIYNNAGIPLNVGFKTTHIETIMGMIKNSDQITFLFKKSAMPFMNKQLVMLSLDQPIYSNLELICPRENQHKPALTKFIEYMKKYTSEPVESYP
Property: soluble on expression in E. coli
Measured: not soluble

Sequence Entry: MGSDKIHHHHHHMTIMDWNTIKGLVPVSGVQPDFVNCLDAFPVLKRAKETPQEPRYHGEGDVWTHTMMVIESLLQLPDYQTATREQQEILFFAALLHDVAKYRTTVIDPVTGQIGQPGHSRKGAIDARVLLWDADVPFAIREAICRLIAVHQVPFYCLEDERRRVSPIFTIRELSWQLSIPLLATLAEADIRGRICQDQTRVLDSIELFRELAREEGCYGQPRAFVDAHTRLSYFRGADVHPDYPLFQEPGSKVTVMCGLPASGKDTWVRTHRHDLPVVSFDDARTELGLKHGENEGKAVHWATDKARSLLRTHEPFVWNATHLSQQMRTRTLDLCYAYGAEVEIVYLERPRQELLRRNGKRDTTLSNKTLQGMLTKWELPSPTEAHVVRYES
Property: soluble on expression in E. coli
Measured: not soluble

Sequence Entry: GRMRIQEQSGARDKMVIGAGGLEDYIDKAMDDVAPNLKALVGAKLGARLISLAGGLKELAMLPSSTIQVLGAEKALFRHLRTGAKPPKHGVIYQYPAINRSPWWQRGKIARALAGKLAIAARVDYFSGEYIAEELKKELEARIKEIKEKYPRPPKRRKEERKGRKPWKE
Property: soluble on expression in E. coli
Measured: soluble

Please find the next sequence below.
# input For the sequence `DITERHAREQKLREERAVIQQALDALDEPLFVTDIDGRLKHCNHRALELTGNTEETAVGTPITALFPDEERETIADAVDDALRTGRTTITASLCLDSGQQQRYEFRAHSLTDLDNNTAGLVILGQDVS` , give its reported soluble on expression in E. coli.
# output not soluble
